target: T1, EphA2 ligand binding domain (EphA2 LBD), residues 28-200 (UniProt P29317 28-200); assay: ITC, soluble EphA2 LBD and peptide
T1 construct: range 28-200; Expressed in E. coli; also called soluble EphA2 LBD; soluble monomeric EphA2 LBD
T1 sequence (P29317 other isoform, or with tags, fused parts or gaps limits assumed, form in doubt): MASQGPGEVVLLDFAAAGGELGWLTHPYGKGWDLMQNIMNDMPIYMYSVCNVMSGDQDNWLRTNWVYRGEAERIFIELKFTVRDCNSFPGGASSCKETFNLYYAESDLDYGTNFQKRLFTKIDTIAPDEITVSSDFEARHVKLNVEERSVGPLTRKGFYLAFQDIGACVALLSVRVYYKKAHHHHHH
Where no end group is shown, it is not given here. [ ]: non-standard residue; d: D form. βAla = NCCC(=O)O
Some binders, each annotated with its measured Kd.
Number in nM, nothing else.

[[record]]
binder = "[βAla]WLAYPDSVPYRPKC (also: homodimer, disulfide at 15, other end not in the chain, C-terminally disulfide-linked homodimer made from monomer (19*); also called dimer (2); dimeric peptide (2)) [βA-WLA-YRPKC dimer (C-ter)]"
endpoint_name = "Kd"
unit_abbreviation = "nM"
observed_value = 380

[[record]]
binder = "CGAWLAYPDSVPYR (also: homodimer: N-terminal Cys of two chains joined by disulfide, N-terminally disulfide-linked homodimer made from monomer (15*); also called dimer (4)) [CGA-WLA-YR dimer (N-ter)]"
endpoint_name = "Kd"
unit_abbreviation = "nM"
observed_value = 104

[[record]]
binder = "CGAWLAYPDSVPYRPK (also: N-terminally disulfide-linked homodimer, disulfide at 1, other end not in the chain, also called dimer (5); dimeric peptide (5)) [CGA-WLA-YRPK dimer (N-ter)]"
endpoint_name = "Kd"
unit_abbreviation = "nM"
observed_value = 21


# query: Kd of entry [βAla]WLAYPDSVPYGSGC (also: homodimer, disulfide at 15, other end not in the chain, C-terminally disulfide-linked homodimer made from monomer (9*); also called dimer (1); dimeric peptide (1)) [βA-WLA-YGSGC dimer (C-ter)]
2900
